assay: Selectivity index, ratio of IC50 against human WI38 cells to IC50 for Plasmodium falciparum 3D7; type: toxicity, cell-based, WI-38; conditions: read-out: Ratio IC50
measurement label: selectivity ratio
Please state the value as a number alone, without comment.

Data request, read-out selectivity ratio, for C=C[C@H]1CN2CC[C@H]1C[C@@H]2[C@@H](O)c1cc(CC[C@@H](C)[C@H]2CC[C@H]3[C@@H]4[C@H](O)C[C@@H]5C[C@H](O)CC[C@]5(C)[C@H]4C[C@H](O)[C@]23C)nc2ccccc12 10

Same read-out for C=C[C@H]1CN2CC[C@H]1C[C@@H]2[C@@H](O)c1cc(CC[C@@H](C)[C@H]2CC[C@H]3[C@@H]4[C@H](O)[C@H](O)[C@@H]5C[C@H](O)CC[C@]5(C)[C@H]4CC[C@]23C)nc2ccccc12 ? 31

# ---- query compound ----
Item under review: C=C[C@H]1CN2CC[C@H]1C[C@@H]2[C@@H](O)c1cc(CC[C@@H](C)[C@H]2CC[C@H]3[C@@H]4C[C@H](OC(C)=O)[C@@H]5C[C@H](OC(C)=O)CC[C@]5(C)[C@H]4CC[C@]23C)nc2ccc(OC)cc12 . Reported selectivity ratio? 29

---

The entries below come with measured selectivity ratio values attached.
assay: Selectivity index, ratio of IC50 against human WI38 cells to IC50 for Plasmodium falciparum 3D7; assay type: toxicity, cell-based, WI-38; settings: read-out: Ratio IC50

Would you mind telling me what selectivity ratio value was observed for C=C[C@H]1CN2CC[C@H]1C[C@H]2[C@H](O)c1cc(CC[C@@H](C)[C@H]2CC[C@H]3[C@@H]4CC[C@@H]5C[C@H](OC(C)=O)CC[C@]5(C)[C@H]4C[C@H](OC(C)=O)[C@]23C)nc2ccccc12 ? 53

---

assay: Selectivity index, ratio of IC50 against human WI38 cells to IC50 for Plasmodium falciparum 3D7; type: toxicity, cell-based, WI-38; conditions: read-out: Ratio IC50
measurement label: selectivity ratio
Reply: number alone, nothing else.

Which selectivity ratio reading was recorded for the molecule C=C[C@H]1CN2CC[C@H]1C[C@H]2[C@H](O)c1cc(CC[C@@H](C)[C@H]2CC[C@H]3[C@@H]4C[C@H](OC(C)=O)[C@@H]5C[C@H](OC(C)=O)CC[C@]5(C)[C@H]4CC[C@]23C)nc2ccccc12 ? 36

C=C[C@H]1CN2CC[C@H]1C[C@H]2[C@H](O)c1cc(CC[C@@H](C)[C@H]2CC[C@H]3[C@@H]4CC[C@@H]5C[C@H](O)CC[C@]5(C)[C@H]4C[C@H](O)[C@]23C)nc2ccc(OC)cc12 ? 22

---

test: Selectivity index, ratio of IC50 against human WI38 cells to IC50 for Plasmodium falciparum 3D7; assay type: toxicity, cell-based, WI-38; conditions: read-out: Ratio IC50
selectivity ratio: recorded values
Answer using only a numeral; do not append any unit.

Here are 3 molecules together with their reported answers.
Record request: selectivity ratio value, item C=C[C@H]1CN2CC[C@H]1C[C@H]2[C@H](O)c1cc(CC[C@@H](C)[C@H]2CC[C@H]3[C@@H]4[C@H](OC(C)=O)C[C@@H]5C[C@H](OC(C)=O)CC[C@]5(C)[C@H]4C[C@H](OC(C)=O)[C@]23C)nc2ccc(OC)cc12 103

Could you do the same for C=C[C@H]1CN2CC[C@H]1C[C@@H]2[C@@H](O)c1cc(CC[C@@H](C)[C@H]2CC[C@H]3[C@@H]4CC[C@@H]5C[C@H](O)CC[C@]5(C)[C@H]4C[C@H](O)[C@]23C)nc2ccccc12 , please? 22

Try this molecule next: C=C[C@H]1CN2CC[C@H]1C[C@H]2[C@H](O)c1cc(CC[C@@H](C)[C@H]2CC[C@H]3[C@@H]4[C@H](OC(C)=O)[C@H](OC(C)=O)[C@@H]5C[C@H](OC(C)=O)CC[C@]5(C)[C@H]4CC[C@]23C)nc2ccccc12 104

---
Any idea what selectivity ratio was measured for C=C[C@H]1CN2CC[C@H]1C[C@@H]2[C@@H](O)c1cc(CC[C@@H](C)[C@H]2CC[C@H]3[C@@H]4CC[C@@H]5C[C@H](OC(C)=O)CC[C@]5(C)[C@H]4C[C@H](OC(C)=O)[C@]23C)nc2ccccc12 ? 28.1

Try the molecule C=C[C@H]1CN2CC[C@H]1C[C@H]2[C@H](O)c1cc(CC[C@@H](C)[C@H]2CC[C@H]3[C@@H]4[C@H](O)[C@H](O)[C@@H]5C[C@H](O)CC[C@]5(C)[C@H]4CC[C@]23C)nc2ccc(OC)cc12 20

Item: C=C[C@H]1CN2CC[C@H]1C[C@@H]2[C@@H](O)c1cc(CC[C@@H](C)[C@H]2CC[C@H]3[C@@H]4[C@H](O)[C@H](O)[C@@H]5C[C@H](O)CC[C@]5(C)[C@H]4CC[C@]23C)nc2ccc(OC)cc12 27.9

What do we get for C=C[C@H]1CN2CC[C@H]1C[C@@H]2[C@@H](O)c1cc(CC[C@@H](C)[C@H]2CC[C@H]3[C@@H]4[C@H](OC(C)=O)[C@H](OC(C)=O)[C@@H]5C[C@H](OC(C)=O)CC[C@]5(C)[C@H]4CC[C@]23C)nc2ccc(OC)cc12 ? 45

Another molecule: C=C[C@H]1CN2CC[C@H]1C[C@@H]2[C@@H](O)c1cc(CC[C@@H](C)[C@H]2CC[C@H]3[C@@H]4CC[C@@H]5C[C@H](O)CC[C@]5(C)[C@H]4C[C@H](O)[C@]23C)nc2ccc(OC)cc12 15

Source listed as ChEMBL document CHEMBL3588788.
